# Method Description: NCI Yeast Anticancer Drug Screen. Data for the sgs1 strain (AID 173)
# Protocol Conditions: S. cerevisiae sgs1 mutant, at 11.0 µM
About 79,000 compounds went through this panel and 15% of them were active in at least one assay; those are over-represented in the sample as a whole. Activity calls are given as the source filed them. No stated cut-off is given here; in the data, active means growth inhibition above about 70%; inactive means the rest.
A correct response names exactly one class from y for active, n for inactive

## Task GET /call?item= CCC#CCCCOC(=O)c1cc([N+](=O)[O-])cc([N+](=O)[O-])c1 returns the recorded outcome of this test.
## Result n

## Task Give the logged outcome of this assay for the following compound: S=C(Nc1ccc(Cl)cc1)SC1CCCCC1
## Result n

## Task Assay result, entry C[CH2][Sn]([CH2]C)([O]C(=O)C(OC(C)=O)c1ccccc1)[O]C(=O)C(OC(C)=O)c1ccccc1 (centres undefined) — outcome?
## Result n

## Task Per the assay record, what outcome was assigned to CC(/C=C/c1ccc2c(c1)OCO2)[N+](=O)[O-] (centres undefined) ?
## Result y

## Task Test call, this compound: CC(C)[N+]([O-])(CCCNc1c2ccccc2nc2cccc([N+](=O)[O-])c12)C(C)C
## Result y

## Task Each compound tested received a call. Report the one for O=c1ssc2ncccc12 .
## Result y

## Task Per the records of this test, what outcome belongs to O=[N+]([O-])c1ccc2c(c1)C(N1CCN(CCO)CC1)Cc1ccc(F)cc1S2 (centres undefined) ?
## Result n

## Task Dear all, I need the recorded test outcome for O=C(/C=C\c1ccc(Cl)cc1Cl)c1cccs1 , thank you.
## Result n

## Task For O=C(Nc1ccccc1)C(=O)C(C(=O)c1ccccc1)C(c1ccccc1)c1ccccc1 (centres undefined) , which call appears in the assay record?
## Result n

## Task Recorded test outcome, item NC(=NCc1ccccc1)N/N=C\c1ccnc2ccccc12
## Result n

## Task # outcome recorded in this test, key = N#CN1C2CCC1CC(=O)C2
## Result n

## Task Query: recorded result category for CC(C)(CN1CCCCC1)C(=O)CC(SCCS(=O)(=O)O)c1ccc(Br)cc1 (centres undefined) in this test
## Result n

## Task Given CC(=O)N/N=C/C(C)(C)C(C)(C)/C=N/NC(C)=O , state the outcome it received in this test.
## Result n

## Task Record lookup: outcome of this test for COc1ccc(N=C2C(=O)Nc3ccc(Br)cc32)cc1 ?
## Result n
